Values were extracted from ChEMBL document CHEMBL1129234.

Each item that follows carries a reported pIC50.
# TARGET ENTITY: Nitric oxide synthase 1 (Rattus norvegicus, UniProt P29476)
# Sequence (P29476 whole entry, canonical isoform): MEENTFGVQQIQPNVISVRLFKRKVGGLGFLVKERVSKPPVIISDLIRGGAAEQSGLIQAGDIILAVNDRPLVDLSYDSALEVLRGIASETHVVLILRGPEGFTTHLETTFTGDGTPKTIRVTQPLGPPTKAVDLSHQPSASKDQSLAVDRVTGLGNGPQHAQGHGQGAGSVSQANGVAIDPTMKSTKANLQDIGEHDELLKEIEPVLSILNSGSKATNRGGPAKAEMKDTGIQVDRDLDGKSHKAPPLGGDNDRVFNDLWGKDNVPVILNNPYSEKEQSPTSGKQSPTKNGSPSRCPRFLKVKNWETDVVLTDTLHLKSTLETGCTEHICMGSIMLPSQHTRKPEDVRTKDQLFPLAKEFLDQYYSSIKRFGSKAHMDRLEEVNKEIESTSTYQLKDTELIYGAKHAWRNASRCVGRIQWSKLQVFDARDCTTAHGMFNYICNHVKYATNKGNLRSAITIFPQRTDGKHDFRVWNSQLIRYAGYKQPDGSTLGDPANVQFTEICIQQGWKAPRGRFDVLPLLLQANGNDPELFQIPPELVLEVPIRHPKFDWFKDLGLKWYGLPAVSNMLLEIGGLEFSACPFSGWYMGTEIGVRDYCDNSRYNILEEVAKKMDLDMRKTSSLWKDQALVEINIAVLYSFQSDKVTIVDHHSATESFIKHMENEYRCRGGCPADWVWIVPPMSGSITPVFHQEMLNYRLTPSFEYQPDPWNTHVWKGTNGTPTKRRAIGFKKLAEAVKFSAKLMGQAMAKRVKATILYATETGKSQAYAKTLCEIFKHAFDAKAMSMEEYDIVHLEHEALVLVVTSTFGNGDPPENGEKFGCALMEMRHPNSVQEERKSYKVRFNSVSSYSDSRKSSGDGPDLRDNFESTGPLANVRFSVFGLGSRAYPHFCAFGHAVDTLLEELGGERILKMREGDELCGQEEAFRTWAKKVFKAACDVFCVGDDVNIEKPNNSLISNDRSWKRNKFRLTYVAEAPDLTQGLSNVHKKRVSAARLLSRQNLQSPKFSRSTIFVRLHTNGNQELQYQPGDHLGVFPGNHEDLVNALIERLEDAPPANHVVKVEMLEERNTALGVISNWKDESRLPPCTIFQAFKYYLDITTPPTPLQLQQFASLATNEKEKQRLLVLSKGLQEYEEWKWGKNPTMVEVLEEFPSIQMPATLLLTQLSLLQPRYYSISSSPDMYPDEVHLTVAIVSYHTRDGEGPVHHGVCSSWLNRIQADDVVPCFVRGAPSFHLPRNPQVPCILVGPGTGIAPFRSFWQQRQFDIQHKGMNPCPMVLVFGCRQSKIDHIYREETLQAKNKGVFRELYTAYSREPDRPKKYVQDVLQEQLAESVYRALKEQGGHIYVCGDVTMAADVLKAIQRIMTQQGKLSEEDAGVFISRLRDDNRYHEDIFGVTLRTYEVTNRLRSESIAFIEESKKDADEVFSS
# TEST: Compound was tested in vitro for inhibitory activity against nNOS (constitutive isoform found in neurons)
pIC50: −log10 of the molar value.

# annotated cases, reported pIC50 shown
>  <COMPOUND>
N/C(=N/CCCC(N)[PH](=O)O)N[N+](=O)[O-] (stereo unspecified)

>  <MEAS VALUE>
4.35

$$$$
>  <COMPOUND>
N/C(=N/CCCC(N)P(=O)(O)O)N[N+](=O)[O-] (stereo unspecified)

>  <MEAS VALUE>
< 4.00

$$$$
>  <COMPOUND>
CNC(=N)NCCCC(N)[PH](=O)O (stereo unspecified)

>  <MEAS VALUE>
4.00

$$$$
>  <COMPOUND>
CNC(=N)NCCCC(N)P(=O)(O)O (stereo unspecified)

>  <MEAS VALUE>
< 4.00

$$$$

Here N=C(N)NCCCC(N)P(=O)(O)O (stereo unspecified) was tested on Nitric oxide synthase 1 (Rattus norvegicus, UniProt P29476), and its pIC50 came to < 4.00

Considering NC(N)=NCCCC(N)[PH](=O)O (stereo unspecified) , its pIC50 with Nitric oxide synthase 1 (Rattus norvegicus, UniProt P29476) was recorded as < 4.00
